System: Mus musculus
Assay: Na+ excretion mequiv /kg in saline-loaded mice administered at a dose 10 […] perorally
Assay type: ADME, organism-based
Settings: in vivo, po
propertyLabel: Na+ excretion

Recorded results for 2 molecules are shown here.
NS(=O)(=O)c1cc(C(=O)O)c(NCc2ccco2)cc1Cl [FUROSEMIDE]; 7.9 m equiv kg-1
O=C(O)C1Cc2cc3c(-c4ccccc4F)noc3c(Cl)c2O1 (stereo in doubt; 30); 3.2 m equiv kg-1

// field: Na+ excretion; key: O=C(O)C1Cc2cc3c(-c4ccccc4F)noc3c(Cl)c2O1 (stereo in doubt; 15k) ; value = 8.2 m equiv kg-1

// field: Na+ excretion; key: O=C(O)C1Cc2cc3c(-c4ccccc4F)noc3c(Cl)c2O1 (stereo in doubt; 29) ; value = 8.1 m equiv kg-1

###

Reported ED6 values for the following compounds.
Tested on: Mus musculus
Test: ED6 (natriuretic potency) is the oral dose(mg/kg) required to produce an excretion of 6 milliequivalents of Na+per kilogram during 0-4 hr in male mice (Highest dose tested was 50 mg/kg)
Type: functional
Please report the result as a number followed by the unit.

O=C(O)C1Cc2cc3c(-c4ccccc4F)noc3c(Br)c2O1 (configuration not stated); 9.9 mg/kg
OCC1Cc2cc3c(-c4ccccc4F)noc3c(Cl)c2O1 (configuration not stated); 30 mg/kg
CC1(c2ccccc2)Cc2cc(OCC(=O)O)c(Cl)c(Cl)c2C1=O (configuration not stated) [INDACRINONE]; 4.4 mg/kg

Now take the following compound into account.
// field: ED6; key: CC(C)Cc1noc2c(Cl)c3c(cc12)CC(C(=O)O)O3 (configuration not stated) ; value = 0.47 mg/kg

###

System: Mus musculus
Test: Na+ excretion mequiv[…] in saline-loaded mice administered at a dose 10 […] perorally
Format: ADME, organism-based
Conditions: in vivo, po
propertyLabel: Na+ excretion
Please report the result as a number followed by the unit.

// field: Na+ excretion; key: C=C(CC)C(=O)c1ccc(OCC(=O)O)c(Cl)c1Cl ; value = 3.2 mequiv/kg

###

Test system: Mus musculus
Assay: Na+ excretion mequiv /kg in saline-loaded mice administered at a dose 2 […] perorally
Format: ADME, organism-based
Details: in vivo, po
propertyLabel: Na+ excretion (m equiv kg-1)
Return type: number; implicit unit m equiv kg-1.

Recorded results for 3 compounds are shown here.
O=C(O)C1Cc2cc3c(-c4ccccc4F)noc3c(Cl)c2O1 (stereo in doubt; 15k); 4.2
NS(=O)(=O)c1cc(C(=O)O)c(NCc2ccco2)cc1Cl [FUROSEMIDE]; 3.7
O=C(O)C1Cc2cc3c(-c4ccccc4F)noc3c(Cl)c2O1 (stereo in doubt; 30); 2.8

Now take the following compound into account.
Considering O=C(O)C1Cc2cc3c(-c4ccccc4F)noc3c(Cl)c2O1 (stereo in doubt; 29) , its Na+ excretion with Mus musculus was recorded as 5.5

###

Test system: Mus musculus
Assay: Na+ excretion mequiv/kg in saline-loaded mice administered at a dose 2 […] perorally
Format: ADME, organism-based
Conditions: in vivo, po
propertyLabel: Na+ excretion (m equiv kg-1)
Return type: number; implicit unit m equiv kg-1.

Considering CC1(c2ccccc2)Cc2cc(OCC(=O)O)c(Cl)c(Cl)c2C1=O (configuration not stated) , its Na+ excretion with Mus musculus was recorded as 4

###

Assay: urate excreted in 4 Cebus monkey''s during 0-6 hr
Type: ADME
Conditions: in vivo
propertyLabel: Excretion (mg/kg)
Return type: number; implicit unit mg/kg.

Recorded results for 3 molecules are shown here.
NS(=O)(=O)c1cc(C(=O)O)c(NCc2ccco2)cc1Cl [FUROSEMIDE]; 4.03
O=C(O)COc1ccc(C(=O)c2cccs2)c(Cl)c1Cl; 11.81
O=C(O)C1Cc2cc3c(-c4ccccc4F)noc3c(Cl)c2O1 (stereo in doubt; 15k); 7.08

Now take the following molecule into account.
// field: Excretion; key: CC1(c2ccccc2)Cc2cc(OCC(=O)O)c(Cl)c(Cl)c2C1=O (centres undefined) ; value = 9.53

###

Test system: Mus musculus
Test: Na+ excretion mequiv[…] in saline-loaded mice administered at a dose 10 […] perorally* -significantly different from control(p<0.05) and Duncan's test
Type: ADME, organism-based
Conditions: in vivo, po
propertyLabel: Na+ excretion (mequiv/kg)
Return type: number; implicit unit mequiv/kg.

// field: Na+ excretion; key: C=C(CC)C(=O)c1ccc(OCC(=O)O)c(Cl)c1Cl ; value = 5.9

###

System: Mus musculus
Test: Na+ excretion mequiv /kg in saline-loaded mice administered at a dose 50 […] perorally
Assay type: ADME, organism-based
Conditions: in vivo, po
Reported Na+ excretion values for the following compounds.
Please report the result as a number followed by the unit.

Recorded results for 3 compounds are shown here.
O=C(O)C1Cc2cc3c(-c4ccccc4F)noc3c(Cl)c2O1 (stereo in doubt; 29); 13.2 m equiv kg-1
O=C(O)C1Cc2cc3c(-c4ccccc4F)noc3c(Cl)c2O1 (stereo in doubt; 15k); 11.9 m equiv kg-1
NS(=O)(=O)c1cc(C(=O)O)c(NCc2ccco2)cc1Cl [FUROSEMIDE]; 11.5 m equiv kg-1

Now take the following compound into account.
// field: Na+ excretion; key: O=C(O)C1Cc2cc3c(-c4ccccc4F)noc3c(Cl)c2O1 (stereo in doubt; 30) ; value = 3.5 m equiv kg-1

###

Reported ED6 values for the following molecules.
Tested on: Mus musculus
Test: ED6 (natriuretic potency) is the oral dose(mg/kg) required to produce an excretion of 6 milliequivalents of Na+per kilogram during 0-4 hr in male mice (Highest dose tested was 50 mg/kg)
Format: functional
Please report the result as a number followed by the unit.

O=C(O)C1Cc2cc3c(-c4ccc(F)cc4)noc3c(Cl)c2O1 (stereo not drawn); 66 mg/kg
Cc1c2c(cc3c(-c4ccccc4F)noc13)CC(C(=O)O)O2 (stereo not drawn); 7.25 mg/kg
NS(=O)(=O)c1cc(C(=O)O)c(NCc2ccco2)cc1Cl [FUROSEMIDE]; 5 mg/kg
O=C(O)C1Cc2cc3c(-c4ccccc4)noc3c(Cl)c2O1 (stereo not drawn); 55 mg/kg
CCc1noc2c(Cl)c3c(cc12)CC(C(=O)O)O3 (stereo not drawn); 6.8 mg/kg
Cc1ccccc1-c1noc2c(Cl)c3c(cc12)CC(C(=O)O)O3 (stereo not drawn); 8.4 mg/kg
NC(=O)C1Cc2cc3c(-c4ccccc4F)noc3c(Cl)c2O1 (stereo not drawn); 39 mg/kg

Now take the following molecule into account.
// field: ED6; key: O=C(O)C1Cc2cc3c(-c4ccccc4F)noc3cc2O1 (stereo not drawn) ; value = 100 mg/kg
